Reference source: BigSolDB 2.1

conditions: in n-propanol, 298.15 K
endpoint.name: solubility (mole fraction)
Answer with a bare number; do not write a unit.

# lookup: solubility (mole fraction) of NCCCCCCN
0.485

###

details: in isobutanol, 288.15 K
endpoint.name: solubility (mole fraction)
Answer with a bare number; do not write a unit.

# lookup: solubility (mole fraction) of NCCCCCCN
0.288

###

conditions: in n-propanol, 278.15 K
endpoint.name: solubility (mole fraction)
Answer with a bare number; do not write a unit.

# lookup: solubility (mole fraction) of NCCCCCCN
0.315

###

conditions: in cyclohexane, 298.15 K
endpoint.name: solubility (mole fraction)
Answer with a bare number; do not write a unit.

# lookup: solubility (mole fraction) of NCCCCCCN
0.0309

###

conditions: in n-propanol, 283.15 K
endpoint.name: solubility (mole fraction)

# lookup: solubility (mole fraction) of NCCCCCCN
0.354

###

details: in 1,4-dioxane, 283.15 K
endpoint.name: solubility (mole fraction)

# lookup: solubility (mole fraction) of NCCCCCCN
0.135

###

settings: in toluene, 293.15 K
endpoint.name: solubility (mole fraction)
Answer with a bare number; do not write a unit.

# lookup: solubility (mole fraction) of NCCCCCCN
0.259

###

details: in n-hexane, 298.15 K
endpoint.name: solubility (mole fraction)
Answer with a bare number; do not write a unit.

# lookup: solubility (mole fraction) of NCCCCCCN
0.0449

###

conditions: in n-hexane, 303.15 K
endpoint.name: solubility (mole fraction)

# lookup: solubility (mole fraction) of NCCCCCCN
0.0729

###

conditions: in n-butanol, 288.15 K
endpoint.name: solubility (mole fraction)
Answer with a bare number; do not write a unit.

# lookup: solubility (mole fraction) of NCCCCCCN
0.448

###

conditions: in 1,4-dioxane, 288.15 K
endpoint.name: solubility (mole fraction)
Answer with a bare number; do not write a unit.

# lookup: solubility (mole fraction) of NCCCCCCN
0.194

###

conditions: in toluene, 278.15 K
endpoint.name: solubility (mole fraction)
Answer with a bare number; do not write a unit.

# lookup: solubility (mole fraction) of NCCCCCCN
0.132

###

details: in toluene, 283.15 K
endpoint.name: solubility (mole fraction)
Answer with a bare number; do not write a unit.

# lookup: solubility (mole fraction) of NCCCCCCN
0.161

###

details: in n-hexane, 293.15 K
endpoint.name: solubility (mole fraction)

# lookup: solubility (mole fraction) of NCCCCCCN
0.0268

###

settings: in cyclohexane, 283.15 K
endpoint.name: solubility (mole fraction)
Answer with a bare number; do not write a unit.

# lookup: solubility (mole fraction) of NCCCCCCN
0.0092

###

conditions: in toluene, 303.15 K
endpoint.name: solubility (mole fraction)
Answer with a bare number; do not write a unit.

# lookup: solubility (mole fraction) of NCCCCCCN
0.434

###

conditions: in n-propanol, 293.15 K
endpoint.name: solubility (mole fraction)
Answer with a bare number; do not write a unit.

# lookup: solubility (mole fraction) of NCCCCCCN
0.431

###

conditions: in n-propanol, 303.15 K
endpoint.name: solubility (mole fraction)
Answer with a bare number; do not write a unit.

# lookup: solubility (mole fraction) of NCCCCCCN
0.552
